Attribution: PubChem BioAssay (NCI)

System: HS 578T breast
Assay: NCI tumour cell line growth inhibition, 48 h
readout: TGI (µM)
Form entry: value (µM) — number only.

[
  {
    "smiles record": "Clc1nc2c(-c3cccs3)ncnc2n1Cc1ccccc1",
    "TGI (µM)": 87.8
  },
  {
    "smiles record": "O=Nc1c(O)ccc2ccccc12",
    "TGI (µM)": 8.24
  },
  {
    "smiles record": "O=C1c2cc(CCl)sc2C(=O)c2ccsc21",
    "TGI (µM)": 0.498
  },
  {
    "smiles record": "C=CCn1c(=O)c(C)cn(/C(=C/C(=O)OCC)C(=O)OCC)c1=O",
    "TGI (µM)": 76.1
  },
  {
    "smiles record": "CCNCCNc1cc(-c2ccc(F)cc2)c(C#N)c2nc3ccccc3n12",
    "TGI (µM)": 12.5
  }
]

Problem: Assign TGI to the following record: Cn1c(O)c(C(=O)Nc2ccc([N+](=O)[O-])cc2)c(=O)n(C)c1=S
Result: 5.85

* * *

# TGI values compiled below
Tested on: MALME-3M melanoma
Experiment: NCI tumour cell line growth inhibition, 48 h
Form entry: value (µM) — number only.

Previously resolved entries follow.
[
  {
    "smiles record": "Cc1cc(C)nc(NS(=O)(=O)c2ccc(NC(=O)c3cccc4cc5ccccc5nc34)cc2)n1",
    "tgt": "MALME-3M melanoma",
    "TGI (µM)": 56.7
  },
  {
    "smiles record": "O=C1c2cc(CCl)sc2C(=O)c2ccsc21",
    "tgt": "MALME-3M melanoma",
    "TGI (µM)": 0.0781
  },
  {
    "smiles record": "O=[As](O)(O)c1ccc(Cc2ccc([As](=O)(O)O)cc2)cc1",
    "tgt": "MALME-3M melanoma",
    "TGI (µM)": 2.62
  }
]

Problem: Assign TGI to the following record: O=C(NC(Nc1ccc(F)c(Cl)c1)(C(F)(F)F)C(F)(F)F)C(C(F)(F)F)C(F)(F)F
Result: 62

* * *

# TGI values compiled below
Test system: MOLT-4 leukemia
Assay: NCI tumour cell line growth inhibition, 48 h

[
  {
    "compound": "Nc1cccc(OCc2nc(N)nc(N)c2-c2ccc(Cl)cc2)c1",
    "TGI": "> 100 µM"
  },
  {
    "compound": "CN(O)C(=O)Cc1ccccc1",
    "TGI": "> 100 µM"
  },
  {
    "compound": "O=C(/C=C/c1ccc(Cl)c(Cl)c1)Oc1ccc(/C=C2\\CCCCC2=O)cc1",
    "TGI": "72.1 µM"
  },
  {
    "compound": "COc1ccc(O)c2c1C(=O)CCCC2=O",
    "TGI": "> 100 µM"
  },
  {
    "compound": "O=c1[nH]c(-c2ccc(C(F)(F)F)cc2)nc2c1CSCC2",
    "TGI": "> 100 µM"
  }
]

Problem: Assign TGI to the following record: CSCCCCCCCCCCOc1ccc(C=C2C(=C(C#N)C#N)c3ccccc3C2=C(C#N)C#N)cc1
Result: 64.5 µM

Problem: Assign TGI to the following record: CC/C(Cl)=N\OC(=O)Nc1ccc(C#N)cc1
Result: 11 µM

* * *

System: BT-549 breast
Assay: NCI tumour cell line growth inhibition, 48 h; in the data active = GI50 below about 0.43 µM; inactive = the rest
Write down the outcome that applies. Available outcomes: active, inactive

Here's what some known entries look like.
[
  {
    "molecule": "C[C@@H]1CC[C@@]2(OC1)O[C@H]1C[C@H]3[C@@H]4CC=C5C[C@@H](O[C@@H]6O[C@H](CO)[C@@H](O[C@@H]7O[C@@H](CO)[C@H](O)[C@H]7O)[C@H](O)[C@H]6O[C@@H]6O[C@@H](C)[C@H](O)[C@@H](O)[C@H]6O)CC[C@]5(C)[C@H]4CC[C@]3(C)[C@H]1[C@@H]2C",
    "label value": "inactive"
  },
  {
    "molecule": "O=C(CCN1CCCC1)Nc1ccc2c(NCCCc3ccccc3)c3ccccc3nc2c1",
    "label value": "inactive"
  },
  {
    "molecule": "C[C@H]1[C@@H](OCC(CO[C@H]2O[C@@H]3O[C@@]4(C)CC[C@H]5[C@H](C)CC[C@@H]([C@H]2C)[C@@]35OO4)=NOCC(=O)O)OC2O[C@@]3(C)CC[C@H]4[C@H](C)CC[C@@H]1[C@@]24OO3 (some centres not stated)",
    "label value": "inactive"
  }
]

Problem: // outcome(item) with item = CN(C)c1ccc(/C=C/c2ccnc3ccccc23)cc1
Result: inactive

Problem: // outcome(item) with item = O=[N+]([O-])c1ccc2c(N=Nc3c(O)ccc4ccccc34)c(O)cc(S(=O)(=O)O)c2c1
Result: inactive

Problem: // outcome(item) with item = C[Se]C(=O)CC1=C2C=C(F)C=CC2/C(=C\c2ccc(S(C)=O)cc2)C1C (configuration not stated)
Result: active

Problem: // outcome(item) with item = CC(C)(C)CC(C)(C)c1ccc(OCCOCCSC(=N)N)cc1
Result: inactive

* * *

Tested on: HT29 colon
Test: NCI tumour cell line growth inhibition, 48 h
Where a SMILES comes first, the peptide text is derived from it. The star is where a group is joined. Cbz = O=C(OCc1ccccc1)*
readout: TGI

Previously resolved entries follow.
[
  {
    "compound": "CN1C[C@@H]2CCCN2P1Oc1cccc2cccnc12 (stereo partly specified)",
    "tgt": "HT29 colon",
    "test result": "> 100 µM"
  },
  {
    "compound": "CCOC(=O)C(C)NC(=O)C(C)NC(=O)C(C)NC(=O)C(C)NC(=O)C(C)NC(=O)C(C)NC(=O)C(C)NC(=O)OCc1ccccc1 (stereo unspecified) (Cbz-AAAAAAA-OEt; configuration not given here)",
    "tgt": "HT29 colon",
    "test result": "> 100 µM"
  },
  {
    "compound": "C#Cc1ccc(NC(=O)c2ccc(/C=C/C(=O)c3nccn3C)cc2)cc1",
    "tgt": "HT29 colon",
    "test result": "1.32 µM"
  }
]

Problem: Assign TGI to the following record: N#Cc1c(C#N)c(SSc2c(C#N)c(C#N)c(N)n2-c2ccccc2)n(-c2ccccc2)c1N
Result: > 59.1 µM

Problem: Assign TGI to the following record: Cc1nc(-c2nc([N+](=O)[O-])c([N+](=O)[O-])[nH]2)cs1
Result: > 100 µM

Problem: Assign TGI to the following record: COC(=O)C1=C(O)C(C(=O)OC)[C@]2(O)[C@H](C(=O)OC)[C@H]1C[C@@H](c1ccc(OC)cc1)[C@H]2C(=O)OC (stereo partly specified)
Result: 97.7 µM

* * *

Test system: UO-31 renal
Assay: NCI tumour cell line growth inhibition, 48 h
readout: TGI (µM)
Form entry: value (µM) — number only.

[
  {
    "compound": "COC(=O)C1(Cc2cccc(Cl)c2)CCCCCCN1C(=O)c1ccccc1 (stereo unspecified)",
    "TGI, µM": 29.3
  },
  {
    "compound": "O=C(/C=C/c1ccc(O)c(O)c1)OCCOC(=O)/C=C/c1ccc(O)c(O)c1",
    "TGI, µM": 47.5
  }
]

Problem: State recorded TGI with UO-31 renal, entry COc1ccc2c3c(c(OCCCN(C)C)nc2c1)-c1ccc(Cl)cc1C3=O , no comment.
Result: 11.1

Problem: State recorded TGI with UO-31 renal, entry Cc1[nH]c2ccccc2c1C=Nc1ccc(Oc2ccccc2)cc1 , no comment.
Result: 24.4

Problem: State recorded TGI with UO-31 renal, entry CCN1/C(=C/C(C)=C/c2sc3ccccc3[n+]2CC)Sc2ccccc21 , no comment.
Result: 1.47

Problem: State recorded TGI with UO-31 renal, entry CN(/N=C\c1ccc2ccccc2c1)C1=NCCCCN1 , no comment.
Result: 55.8

Problem: State recorded TGI with UO-31 renal, entry COc1ccc(/C=C2\COc3ccc(-c4ccccc4)cc3C2=O)cc1O , no comment.
Result: 16.1

Problem: State recorded TGI with UO-31 renal, entry CCN(CC)CCCNC(=O)Cc1ccccc1Nc1c(Cl)cccc1Cl , no comment.
Result: 23.8

Problem: State recorded TGI with UO-31 renal, entry COc1cc(CC2c3cc(OC)c(OC)cc3CCN2C)c(Oc2cc3c(cc2OC)-c2c(OC)c(OC)c(OC)c4c2C(C3)N(C)CC4)cc1OC (stereo unspecified) , no comment.
Result: 22.1

* * *

Tested on: SK-MEL-2 melanoma
Experiment: NCI tumour cell line growth inhibition, 48 h; in the data active = GI50 below about 0.43 µM; inactive = the rest
Write down the outcome that applies. Available outcomes: yes (1) = active, no (0) = inactive

Here's what some known entries look like.
[
  {
    "molecule": "O=C(NNS(=O)(=O)c1cc(C(F)(F)F)cc(C(F)(F)F)c1)c1cnn(-c2ccc(Cl)cc2)c1C(F)(F)F",
    "tgt": "SK-MEL-2 melanoma",
    "label value": "no (0)"
  },
  {
    "molecule": "CC(=O)N1CC(F)(F)c2c(Sc3ncc(N4CCC5(CC4)COC[C@H]5N)nc3N)cccc21",
    "tgt": "SK-MEL-2 melanoma",
    "label value": "no (0)"
  },
  {
    "molecule": "CC/C=C\\CCC/C=C1/C(=O)C=C[C@@H]1C/C=C\\CCCC(=O)O",
    "tgt": "SK-MEL-2 melanoma",
    "label value": "no (0)"
  },
  {
    "molecule": "COc1ccc2c3c(c(OCCCN(C)C)nc2c1)-c1ccc(Cl)cc1C3=O",
    "tgt": "SK-MEL-2 melanoma",
    "label value": "no (0)"
  },
  {
    "molecule": "COc1ccc(NC(=O)c2cc(OC)c(OC)c(OC)c2)cc1O",
    "tgt": "SK-MEL-2 melanoma",
    "label value": "no (0)"
  },
  {
    "molecule": "CC(=O)Oc1c(OC(C)=O)c(-c2ccc(O)c(O)c2)c(O)c(O)c1-c1ccc(O)cc1",
    "tgt": "SK-MEL-2 melanoma",
    "label value": "no (0)"
  }
]

Problem: // outcome(item) with item = O=C1/C(=C/c2cccs2)CCC/C1=C\c1cccs1
Result: no (0)

Problem: // outcome(item) with item = CC[C@H](C)[C@H](NC(=O)C12C3C4C1C1C2C3C41NC(C)=O)C(=O)N(C)[C@H](C[C@@H](OC(C)=O)c1nc(C(=O)N[C@@H](Cc2ccccc2)C[C@H](C)C(=O)OC)cs1)C(C)C (stereo partly specified)
Result: yes (1)
